Overview of recorded protein stability index for various variants
B1: HDAC6 (parent)
chain: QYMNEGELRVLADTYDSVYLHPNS

Variants of: B1
Assay: protein stability index of a GFP-peptide fusion (GPS, HEK-293T) (PSI 1-6); higher = more stable;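 further: lentivirally expressed fusions sorted by FACS into six bins by GFP to DsRed ratio, PSI derived from sequencing read proportions per bin multiplied by bin number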
Conditions: c terminus: a fixed tail appended

# Mutation Name, protein stability index
data = [
    ("Y19D", 3.32),
    ("L11H", 3.13),
    ("V10I", 1.84),
    ("S24I", 3.21),
    ("V18T", 1.77),
    ("L20S", 3.32),
    ("D16T", 1.8),
]
